Cited source: patent US9988373B2

Listing of recorded IC50 by entry.
# TARGET_UNDER_TEST: human P2X7 receptor (Homo sapiens, UniProt Q99572, R270H)
# Construct: expressed in transfected cells
# EXPERIMENT: Evaluation of a human P2X7 receptor inhibitory activity (Yo-Pro uptake, BzATP stimulation, FLIPR TETRA)
# Assay type: cell-based
# CONDITION_LABEL: antagonistic activity for the human P2X7 receptor, 1321N1 cell transfected with the human P2X7 receptor gene, Yo-Pro fluorescence, class symbols

Known IC50 results, listed for orientation:
COc1cn(Cc2cccc(C#N)c2)c(-c2cccc(C(F)(F)F)c2Cl)cc1=O    100 to 500 nM
N#CCOc1cn(Cc2ccccc2)c(-c2cccc(C(F)(F)F)c2Cl)cc1=O    < 50 nM
Cc1ccccc1Cn1cc(C)c(=O)nc1-c1cccc(C(F)(F)F)c1Cl    < 50 nM
COc1cn(Cc2cccc(C#N)c2)c(-c2cccc(C(F)(F)F)c2Cl)nc1=O    100 to 500 nM
COc1ccccc1Cn1cc(OC)c(=O)nc1-c1cccc(C(F)(F)F)c1Cl    < 50 nM
O=c1ccn(Cc2ccon2)c(-c2cccc(C(F)(F)F)c2Cl)c1    1000 to 10000 nM

The compound COc1cn(Cc2ccccc2C)c(-c2ccccc2)nc1=O showed IC50 equal to 1000 to 10000 nM

For reference, reported IC50 for CC(=O)c1cn(Cc2ccccc2)c(-c2cccc(C(F)(F)F)c2Cl)cc1=O stands at 100 to 500 nM

Entry COc1cn(Cc2ccccc2C)c(C2=CCCCC2)nc1=O — recorded IC50 = 1000 to 10000 nM

IC50 in this record for C#CCOc1cn(Cc2ccccc2)c(-c2cccc(C(F)(F)F)c2Cl)nc1=O : < 50 nM

====

# TARGET_UNDER_TEST: human P2X7 receptor (Homo sapiens, UniProt Q99572, R270H)
# Construct: expressed in transfected cells
# Sequence (Q99572 1-595 R270H): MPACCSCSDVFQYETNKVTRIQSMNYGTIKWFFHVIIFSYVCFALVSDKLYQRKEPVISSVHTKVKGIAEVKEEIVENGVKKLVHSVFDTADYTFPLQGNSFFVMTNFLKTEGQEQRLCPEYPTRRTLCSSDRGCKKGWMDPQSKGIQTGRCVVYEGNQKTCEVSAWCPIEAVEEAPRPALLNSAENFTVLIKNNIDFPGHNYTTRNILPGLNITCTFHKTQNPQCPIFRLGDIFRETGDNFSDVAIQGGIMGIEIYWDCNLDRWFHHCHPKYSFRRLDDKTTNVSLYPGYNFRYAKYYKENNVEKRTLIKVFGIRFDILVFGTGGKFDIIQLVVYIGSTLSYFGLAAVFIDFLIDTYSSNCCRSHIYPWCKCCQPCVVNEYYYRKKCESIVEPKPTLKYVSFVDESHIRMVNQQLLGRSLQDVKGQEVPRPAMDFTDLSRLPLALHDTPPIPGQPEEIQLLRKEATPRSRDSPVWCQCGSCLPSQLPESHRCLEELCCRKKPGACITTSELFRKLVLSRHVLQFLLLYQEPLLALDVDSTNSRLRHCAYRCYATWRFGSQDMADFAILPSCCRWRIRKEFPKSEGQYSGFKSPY
# EXPERIMENT: Evaluation of a human P2X7 receptor inhibitory activity (Yo-Pro uptake, BzATP stimulation, FLIPR TETRA)
# Assay type: cell-based
# CONDITION_LABEL: antagonistic activity for the human P2X7 receptor, 1321N1 cell transfected with the human P2X7 receptor gene, Yo-Pro fluorescence, class symbols
pIC50: −log10 of the molar value.
Consider the following molecules and their measured pIC50 readings.

O=c1ccn(Cc2cccc(C(F)(F)F)c2)c(-c2cccc(C(F)(F)F)c2Cl)c1 [Compound I-050]    5.00 to 6.00
COc1ccccc1Cn1cc(F)c(=O)nc1-c1cccc(C(F)(F)F)c1Cl [II-093]    > 7.30
Cc1ccccc1Cn1cc(Br)c(=O)nc1-c1cccc(C(F)(F)F)c1Cl [II-003]    > 7.30
N#CCOc1cn(Cc2ccccc2)c(-c2cccc(C(F)(F)F)c2Cl)nc1=O [II-022]    > 7.30
O=c1ccn(Cc2cccc3c2OCCCO3)c(-c2cccc(C(F)(F)F)c2Cl)c1 [Compound I-046]    6.30 to 7.00
CC(C)Oc1cn(Cc2ccccc2)c(-c2cccc(C(F)(F)F)c2Cl)nc1=O [II-021]    7.00 to 7.30
O=c1nc(-c2cccc(C(F)(F)F)c2Cl)n(Cc2ccccc2)cc1OCCO [II-025]    7.00 to 7.30
COc1cn(Cc2ccccc2C)c(-c2ccccc2Cl)nc1=O [II-074]    6.00 to 6.30

# pIC50 (molecule: COc1cccc(Cn2ccc(=O)cc2-c2cccc(C(F)(F)F)c2Cl)c1 [Compound I-057] ) is 6.30 to 7.00

Looking up COc1cn(Cc2ccccc2C)c(-c2cccc(F)c2)nc1=O [II-062] , I found its pIC50 recorded as 5.00 to 6.00

The reported pIC50 of the molecule COc1cn(Cc2ccccc2)c(-c2cc(Cl)ccc2Cl)nc1=O [II-101] was 5.00 to 6.00

The molecule identified as COc1cn(Cc2ccccc2C)c(-c2cccc(C(F)(F)F)c2Cl)nc1=O [II-001] registered its pIC50 at > 7.30

Sample COc1cn(Cc2cccc3ncccc23)c(-c2cccc(C(F)(F)F)c2Cl)nc1=O [II-052] ; pIC50 observed: > 7.30

====

# TARGET_UNDER_TEST: human P2X7 receptor (Homo sapiens, UniProt Q99572, R270H)
# Construct: expressed in transfected cells
# EXPERIMENT: Evaluation of a human P2X7 receptor inhibitory activity (Yo-Pro uptake, BzATP stimulation, FLIPR TETRA)
# Type: cell-based
# CONDITION_LABEL: antagonistic activity for the human P2X7 receptor, 1321N1 cell transfected with the human P2X7 receptor gene, Yo-Pro fluorescence, class symbols
pIC50: −log10 of the molar value.
MEASURED_METRIC: pIC50

Completed entries (count: 10):
COc1cn(Cc2ccccc2)c(C2=CCCCCC2)nc1=O [II-069]    5.00 to 6.00
O=c1ccn(Cc2ccc(F)cc2)c(-c2cccc(C(F)(F)F)c2Cl)c1 [Compound I-017]    6.00 to 6.30
O=c1nc(-c2cccc(C(F)(F)F)c2Cl)n(Cc2ccccc2)cc1C(F)(F)F [II-036]    6.30 to 7.00
CC(C)NC(=O)Nc1cccc(Cn2cc(Br)c(=O)cc2-c2cccc(C(F)(F)F)c2Cl)c1 [Compound I-012]    6.00 to 6.30
COc1cccc(Cn2ccc(=O)cc2-c2cccc(C(F)(F)F)c2Cl)n1 [Compound I-032]    6.00 to 6.30
N#Cc1cccc(Cn2cc(Cl)c(=O)cc2-c2cccc(C(F)(F)F)c2Cl)c1 [Compound I-013]    6.30 to 7.00
O=c1ccn(Cc2cccc(F)c2F)c(-c2cccc(C(F)(F)F)c2Cl)c1 [Compound I-062]    6.00 to 6.30
O=c1ccn(Cc2ccccc2)c(-c2cccc(C(F)(F)F)c2Cl)c1 [Compound I-019]    6.30 to 7.00
COc1cn(Cc2ccccc2F)c(-c2cccc(C(F)(F)F)c2Cl)nc1=O [II-005]    7.00 to 7.30
O=c1ccn(Cc2nc(C(F)(F)F)cs2)c(-c2cccc(C(F)(F)F)c2Cl)c1 [Compound I-066]    5.00 to 6.00

Kindly note the recorded pIC50 for COc1cn(Cc2ccccc2)c(-c2cccc(Cl)c2C)nc1=O [II-081] , which is 6.00 to 6.30

get_value(item= Cc1ccccc1Cn1cc(F)c(=O)nc1-c1cccc(C(F)(F)F)c1Cl [II-011] , readout=pIC50) returns > 7.30

Value of measured pIC50 for the entry COc1cn(Cc2ccccc2Cl)c(-c2cccc(C(F)(F)F)c2Cl)nc1=O [II-095] : > 7.30

Just so you know, measured pIC50 for CC(=O)COc1cn(Cc2ccccc2)c(-c2cccc(C(F)(F)F)c2Cl)nc1=O [II-034] came out at 7.00 to 7.30

For this compound ( COc1ccc(-c2noc(Cn3ccc(=O)cc3-c3cccc(C(F)(F)F)c3Cl)n2)cc1 [Compound I-038] ), measured pIC50 is 5.00 to 6.00

====

# TARGET_UNDER_TEST: human P2X7 receptor (Homo sapiens, UniProt Q99572, R270H)
# Construct: expressed in transfected cells
# EXPERIMENT: Evaluation of a human P2X7 receptor inhibitory activity (Yo-Pro uptake, BzATP stimulation, FLIPR TETRA)
# Format: cell-based
# CONDITION_LABEL: antagonistic activity for the human P2X7 receptor, 1321N1 cell transfected with the human P2X7 receptor gene, Yo-Pro fluorescence, class symbols
MEASURED_METRIC: IC50

Consider the reported IC50 for these compounds:
O=c1ccn(Cc2cccc(-c3cccs3)c2)c(-c2cccc(C(F)(F)F)c2Cl)c1    1000 to 10000 nM
Cc1ccccc1Cn1cc(OCC(F)(F)F)c(=O)nc1-c1cccc(C(F)(F)F)c1Cl    < 50 nM
O=c1ccn(Cc2cccc(Oc3ccccc3)c2)c(-c2cccc(C(F)(F)F)c2Cl)c1    500 to 1000 nM
O=c1ccn(Cc2cccc(Cl)c2)c(-c2cccc(C(F)(F)F)c2Cl)c1    100 to 500 nM
COc1cn(Cc2cccnc2)c(-c2cccc(C(F)(F)F)c2Cl)nc1=O    100 to 500 nM
N#Cc1cn(Cc2ccccc2F)c(-c2cccc(C(F)(F)F)c2Cl)cc1=O    < 50 nM

COc1cn(Cc2ccccc2C)c(-c2ccc(C(F)(F)F)cc2)nc1=O yielded IC50 of 1000 to 10000 nM

For reference, reported IC50 for O=C(Nc1cn(Cc2ccccc2)c(-c2cccc(C(F)(F)F)c2Cl)nc1=O)OCC(F)(F)F stands at 100 to 500 nM
